- measured_target: T1, MITF_(CTERM) (UniProt O75030-9 289-419)
- T1 construct: numbers count on: the MITF-M isoform; 15N-labelled for the NMR titration; also called C-terminal MITF-M; MITF C-terminal region; source: E. coli BL21 (DE3), purified (Ni-NTA, TEV cleavage, Q-Sepharose)
- T1 sequence (looked up): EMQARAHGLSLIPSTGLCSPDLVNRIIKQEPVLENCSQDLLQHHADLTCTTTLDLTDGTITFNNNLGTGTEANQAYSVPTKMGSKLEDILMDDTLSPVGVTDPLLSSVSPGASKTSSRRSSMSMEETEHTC
- experiment: ITC; 400 µM TAZ1 or TAZ2 in the syringe injected into 16–30 µM MITF construct in the cell; 20 mM TRIS pH 8, 25 mM NaCl, 5 mM βME, 10 µM ZnCl2; 30 °C; single-binding-site fit; duplicate
- condition_summary: both partners purified
assay_readout: Kd (nM)
I only need the number, in nM, no unit after it.

Param item = TAZ2 domain of CBP/p300 (domain or fragment) GDSRRLSIQRCIQSLVHACQCRNANCSLPSCQKMKRVVQHTKGCKRKTNGGCPICKQLIALCCYHAKHCQENKCPVPFCLNI ; retrieve measured Kd.
760
